Exercise: for every item that follows, state its recorded AUC at 24 h.
Experiment: AUC in Balb/c nude mouse at 50 mg/kg, po measured after 24 hrs by LC-MS/MS analysis
Format: ADME, organism-based
Set-up: dose 50 mg/kg, time < 24 hr, route oral
Condition notes: in vivo
Give bare numbers, in ng·h/mL.

Nc1ncc(-c2nc(N3CCOCC3)nc3c2CCN3C(=O)Nc2ccccc2)cn1 | 437

For CCN1CCN(c2cc(F)c(NC(=O)N3CCc4c(-c5cnc(N)nc5)nc(N5CCOCC5)nc43)c(F)c2)CC1 , what is its reported AUC at 24 h?
5680

---

Experiment: Metabolic stability in mouse liver microsomes assessed as clearance
Assay type: ADME
Condition notes: read-out: CLH
Experimental readout: microsomal CLint (µL/min/mg)
Answers are plain numbers, in µL/min/mg.

Could you tell me which microsomal CLint is on file for CCN1CCN(c2cc(F)c(NC(=O)N3CCc4c(-c5cnc(N)nc5)nc(N5CCOCC5)nc43)c(F)c2)CC1 ?
7.6
